Biological target: recombinant rat mGluR2 expressed in CHO cells (Rattus norvegicus)
Construct: expressed in transfected cells; host or cells: CHO cells, stably transfected with pcD1mGR2 (pcDNA I-amp), G-418 selected; membranes used
Sequence (P31421 19-872): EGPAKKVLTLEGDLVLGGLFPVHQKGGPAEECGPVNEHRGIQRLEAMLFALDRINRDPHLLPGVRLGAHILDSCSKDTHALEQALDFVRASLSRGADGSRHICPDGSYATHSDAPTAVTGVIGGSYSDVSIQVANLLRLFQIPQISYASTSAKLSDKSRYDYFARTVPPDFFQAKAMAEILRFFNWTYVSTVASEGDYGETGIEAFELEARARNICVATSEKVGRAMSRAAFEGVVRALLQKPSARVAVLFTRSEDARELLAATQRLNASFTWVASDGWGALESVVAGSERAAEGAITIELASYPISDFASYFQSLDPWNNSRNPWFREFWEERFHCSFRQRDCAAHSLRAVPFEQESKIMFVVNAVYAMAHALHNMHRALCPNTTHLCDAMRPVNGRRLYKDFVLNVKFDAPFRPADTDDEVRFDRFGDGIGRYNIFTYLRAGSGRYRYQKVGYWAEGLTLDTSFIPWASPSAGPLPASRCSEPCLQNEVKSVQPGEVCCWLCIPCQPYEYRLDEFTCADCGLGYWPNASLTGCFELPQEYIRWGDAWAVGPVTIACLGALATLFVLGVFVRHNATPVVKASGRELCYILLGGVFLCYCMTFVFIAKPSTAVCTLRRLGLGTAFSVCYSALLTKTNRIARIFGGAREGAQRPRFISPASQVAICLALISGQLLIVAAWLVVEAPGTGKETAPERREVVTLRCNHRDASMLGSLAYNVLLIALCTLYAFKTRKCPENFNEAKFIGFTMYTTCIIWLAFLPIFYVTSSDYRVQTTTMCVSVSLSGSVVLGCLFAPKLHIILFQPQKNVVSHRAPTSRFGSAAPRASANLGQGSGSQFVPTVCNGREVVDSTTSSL
Assay: [3H]-LY354740 binding on mGlu2 transfected CHO cell membranes (displacement binding assay)
Details: displacement of 10 nM [3H]-LY354740, membranes of CHO cells expressing rat mGlu2, room temperature, 1 hour; Ki calculated from IC50 with the Cheng and Prusoff equation
Recorded Ki by entry
MEASUREMENT_KIND: Ki (nM)

- MOLECULE: "O=C1CC(c2cccc(-n3nncc3CO)c2)=Nc2cc(N3CCOCC3)c(C(F)(F)F)cc2N1 [Example 1]"
  RECORDED_MEASUREMENT: 74
- MOLECULE: "CCOc1cc2c(cc1C(F)(F)F)NC(=O)CC(c1ccnc(C#N)c1)=N2 [Example 53]"
  RECORDED_MEASUREMENT: 8
- MOLECULE: "O=C1CC(c2cccc(-c3ncco3)c2)=Nc2ccc(-n3cccc3)cc2N1 [Example 22]"
  RECORDED_MEASUREMENT: 23
- MOLECULE: "COc1cc2c(cc1-n1cccc1C(C)(C)C)NC(=O)CC(c1cccc(C#N)c1)=N2 [Example 18]"
  RECORDED_MEASUREMENT: 80
- MOLECULE: "O=C1CC(c2cccc(-c3nc(C(=O)NCCO)co3)c2)=Nc2ccc(-n3cccc3)cc2N1 [Example 34]"
  RECORDED_MEASUREMENT: 91
- MOLECULE: "O=C1CC(c2cccc(-n3ccnn3)c2)=Nc2ccc(-n3cccc3)cc2N1 [Example 21]"
  RECORDED_MEASUREMENT: 7.5
- MOLECULE: "N#Cc1cccc(C2=Nc3cc(I)c(-n4cccc4)cc3NC(=O)C2)c1 [Example 9]"
  RECORDED_MEASUREMENT: 75
- MOLECULE: "O=C1CC(c2cccc(-n3ccnc3)c2)=Nc2ccc(-n3cccc3)cc2N1 [Example 16]"
  RECORDED_MEASUREMENT: 25
- MOLECULE: "N#Cc1cc(C2=Nc3cc(N4CCOCC4)c(C(F)(F)F)cc3NC(=O)C2)ccn1 [Example 2]"
  RECORDED_MEASUREMENT: 20
- MOLECULE: "Cc1cc2c(cc1C(F)(F)F)NC(=O)CC(c1ccnc(C#N)c1)=N2 [Example 58]"
  RECORDED_MEASUREMENT: 8.5
- MOLECULE: "Cc1cc2c(cc1C(F)(F)F)NC(=O)CC(c1cccc(-n3cccn3)c1)=N2 [Example 77]"
  RECORDED_MEASUREMENT: 70
- MOLECULE: "NC(=O)c1coc(-c2cccc(C3=Nc4ccc(-n5cccc5)cc4NC(=O)C3)c2)n1 [Example 27]"
  RECORDED_MEASUREMENT: 62
- MOLECULE: "Cc1cc2c(cc1C(F)(F)F)NC(=O)CC(c1cccc(-c3nc(CO)sc3C)c1)=N2 [Example 84]"
  RECORDED_MEASUREMENT: 6.5
- MOLECULE: "Cc1cc(-c2cccc(C3=Nc4cc(N5CCSCC5)c(C#N)cc4NC(=O)C3)c2)on1 [Example 62]"
  RECORDED_MEASUREMENT: 32.5
- MOLECULE: "CCOc1cc2c(cc1C(F)(F)F)NC(=O)CC(c1cccc(-n3nncc3CO)c1)=N2 [Example 52]"
  RECORDED_MEASUREMENT: 83.5
- MOLECULE: "N#Cc1cccc(C2=Nc3ccc(-n4cccc4)cc3NC(=O)C2)c1 [Example 4]"
  RECORDED_MEASUREMENT: 35
